Cited source: ChEMBL document CHEMBL3988442

Recorded Percent Effect for the following molecules
System: Wolbachia pipientis
Experiment: Anti-Wolbachia Cell-Based Screen
Format: functional
Design: scale not given: in the data most compounds retested in dose-response had high values
Settings: 5 µM
About 13,000 (27%) of roughly 48,000 compounds showed an effect of 50% or more. The list shows a part of the results.

molecule | Percent Effect (%)
O=C(CC1CCCC1)N1CCN2C[C@@H](CO)[C@H](c3ccccc3)[C@H]2C1 | 76.76
O=C(COc1ccc2c(c1)CCC2)N1CCCC(n2cccn2)C1 (stereo not drawn) | 22.49
O=C(CCCOc1cccc(F)c1)N1CCCC(n2cccn2)C1 (stereo not drawn) | 116.5
CCN1CC[C@]2(CN(C(=O)C3CCOCC3)C[C@H]2c2ccccc2)C1=O | -4.584
N#Cc1cccc(NC(=O)N[C@H](CO)Cc2ccc(O)cc2)c1 | -17.39
COCC1CN(S(=O)(=O)Cc2ccccc2)Cc2c1cnn2C.O=C(O)C(F)(F)F (stereo not drawn) | -18.15
O=C(CCOc1cccc(F)c1)N1CCCC(n2cccn2)C1 (stereo not drawn) | 114
COCCOC(=O)N1CCN2C[C@@H](CO)[C@H](c3ccccc3)[C@H]2C1 | 99.06
COC(=O)N1CCN(Cc2ccccc2Cl)CC1 | 0.9968
CCc1c(C)nc2cc(C3CCN(CCc4ccccc4)C3)nn2c1O (stereo not drawn) | 76.13
Cc1cc(C(=O)N2CC[C@H](N3CCOCC3)[C@H](CCCO)C2)c(C)n1C | -10.4
O=C(CCOc1cccc(F)c1)N1CCCC(n2cncn2)C1 (stereo not drawn) | -0.888
O=C(CCCOc1ccccc1Cl)N1CCCC(n2cncn2)C1 (stereo not drawn) | 20.25
COCCC(=O)N1CCC2(CC1)CC(c1ccccc1)CN(C1CC1)C2 (stereo not drawn) | -1.605
O=C(CO)N1CCCC(N2CCN(c3ccccc3F)CC2)C1 (stereo not drawn) | 13.62
NC(=O)[C@@H]1CN2CCN(C(=O)C3CC3)C[C@@H]2[C@H]1c1ccccc1 | 100.9
Cn1cc(C(=O)NCc2cn3c(n2)CN(CC2CCOCC2)CC3)cn1.O=C(O)C(F)(F)F | -7.416
CC(=O)N1CCN(C)CC(COCc2ccccc2)C1 (stereo not drawn) | -1.846
COCCOC(=O)N1C[C@H]2CC[C@@H]1CN(C1Cc3ccccc3C1)C2 | 9.586
COC(=O)N1CCC(NC(=O)CC(C)CCc2ccccc2)CC1 (stereo not drawn) | 12.69
O=C(CCCOc1cccc(F)c1)N1CCCC(n2cncn2)C1 (stereo not drawn) | 133
Cn1cnnc1CNC(=O)C1CCCN(Cc2cccc(F)c2)C1 (stereo not drawn) | -3.668
Cn1cc(C2CCCN2C(=O)CCCOc2ccc(F)cc2F)cn1 (stereo not drawn) | 6.494
